The measured values listed here are drawn from PubChem BioAssay.

Listing of recorded composite z-score by entry.
# System: Human papillomavirus type 1a protein E7 (residues 44-93)
# procedure_details: HPV1a E7 fragment binders on microarrays, primary screen, biochemical, small-molecule microarray, residues 44-93, 635 nm fluorescence (AID 1108);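 also: E7 fragment applied at 1 µg/mL in TBST for 1 h at 4 C; score combines spot fluorescence with its signal to noise ratio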
# condition_notes: small-molecule microarray binding, fluorescence 635 nm; higher = more signal
Give the value as a plain number.

Here's what some known entries look like.
CC(C)C(=C=CC[C@@H](O)c1cccc(OCCO)c1)C[C@@H](O)c1ccccn1
0.0406
COCCOC(=O)N1C(=O)[C@@]2(c3cc(C#CCCO)ccc31)[C@H](C(N)=O)[C@H]1C(=O)O[C@H](c3ccccc3)[C@H](c3ccccc3)N1[C@@H]2c1ccc(OCCO)cc1
1.28
COCC(=C=CC[C@H](O)c1cccc(OCCO)c1)C[C@H](O)COCc1ccccc1
0.768
CCCC=C(CCC)[C@@H](NS(=O)(=O)c1cccc2cccnc12)c1ccc(-c2ccccc2)cc1
1.39
COCCOC(=O)N1C(=O)[C@@]2(c3cc(C#CCC(C(=O)OC)C(=O)OC)ccc31)[C@H](c1ccc(OCCO)cc1)N1[C@H](c3ccccc3)[C@H](c3ccccc3)OC(=O)[C@H]1[C@@H]2C(=O)Nc1nc2ccccc2s1
1.16
C=C(COC)C(=O)CC[C@@H](OC(=O)c1cccnc1)c1ccccc1OCCO
-1.05
COCCOC(=O)N1C(=O)[C@@]2(c3cc(C#CCNC(N)=O)ccc31)[C@H](c1ccc(O)cc1)N1[C@H](c3ccccc3)[C@H](c3ccccc3)OC(=O)[C@H]1[C@@H]2C(N)=O
-0.8
CCOC(=O)C1=C[C@@H](c2ccccc2)N(S(=O)(=O)c2ccc(C)cc2)[C@H]1c1ccccc1
0.0627

Reading of composite z-score for CS(=O)(=O)CCOC(=O)C1=CC(CCCO)=CC(C2CC2)N(Cc2cccc(OC(F)(F)F)c2)C=C1C(=O)OCCS(C)(=O)=O (centres undefined) with Human papillomavirus type 1a protein E7 (residues 44-93): 1.3

Reading of composite z-score for COCCOC(=O)N1C(=O)[C@@]2(c3cc(C#CCNC(N)=O)ccc31)[C@H](c1ccc(O)cc1)N1[C@H](c3ccccc3)[C@H](c3ccccc3)OC(=O)[C@H]1[C@@H]2C(=O)N1CCN(c2ncccn2)CC1 with Human papillomavirus type 1a protein E7 (residues 44-93): 0.855

Reading of composite z-score for C=C(C)C1CCC(C(O)C2C=CC3C(=O)N(C)C(=O)C3N2Nc2cc(OC)c(OC)c(OC)c2)CC1 (centres undefined) with Human papillomavirus type 1a protein E7 (residues 44-93): 1.4

Reading of composite z-score for [N-]=[N+]=Nc1ccccc1[C@@H]1OC(c2ccc(OCCCO)cc2)=N[C@]1(Cc1ccccc1)C(=O)NCc1ccccc1 with Human papillomavirus type 1a protein E7 (residues 44-93): 0.656

Reading of composite z-score for C=CCC(OC(C)=O)[C@@H]1[C@@H](N(Cc2cccc3ccccc23)C(=O)Cc2ccc(F)cc2)c2cc(OCCCO)ccc2N1C(=O)c1ccc(-c2ccccc2)cc1 (some centres undefined) with Human papillomavirus type 1a protein E7 (residues 44-93): -0.658

Reading of composite z-score for O=C1OCCC/C=C\[C@H]2OC34C=CCN(c5ccc6ccccc6c5)C(=O)[C@H]3N(CCCO)C(=O)[C@@H]4C12 (some centres undefined) with Human papillomavirus type 1a protein E7 (residues 44-93): -0.148
